- system-name: Activin receptor type-1B (Homo sapiens) (UniProt P36896)
- Sequence (P36896 whole entry): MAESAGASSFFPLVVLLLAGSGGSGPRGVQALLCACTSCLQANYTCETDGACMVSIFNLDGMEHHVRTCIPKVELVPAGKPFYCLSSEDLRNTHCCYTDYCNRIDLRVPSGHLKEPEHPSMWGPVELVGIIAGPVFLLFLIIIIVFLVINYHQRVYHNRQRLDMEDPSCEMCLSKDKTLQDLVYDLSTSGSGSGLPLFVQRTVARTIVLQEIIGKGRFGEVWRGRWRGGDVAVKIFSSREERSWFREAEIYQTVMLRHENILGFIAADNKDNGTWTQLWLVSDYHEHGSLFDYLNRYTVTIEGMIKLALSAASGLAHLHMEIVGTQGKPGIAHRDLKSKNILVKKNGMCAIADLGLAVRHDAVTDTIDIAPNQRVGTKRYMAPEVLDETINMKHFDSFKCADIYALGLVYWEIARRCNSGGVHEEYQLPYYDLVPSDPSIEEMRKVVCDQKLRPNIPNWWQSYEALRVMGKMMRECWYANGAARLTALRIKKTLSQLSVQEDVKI
- experimental-context: at 10 µM
value-kind: residual activity (%)
Form entry: value (%) — number only.

Can you look up residual activity on Activin receptor type-1B (Homo sapiens) (UniProt P36896) for c1cc(-c2cnn3cc(-c4ccc(OCCN5CCCCC5)cc4)cnc23)ccn1 ? 24

Can you look up residual activity on Activin receptor type-1B (Homo sapiens) (UniProt P36896) for COc1ccc2c(c1)/C(=C/c1cnc[nH]1)C(=O)N2 ? 82

Can you look up residual activity on Activin receptor type-1B (Homo sapiens) (UniProt P36896) for COC(=O)[C@@]1(O)C[C@H]2O[C@]1(C)n1c3ccccc3c3c4c(c5c6ccccc6n2c5c31)C(=O)NC4 ? 0

Can you look up residual activity on Activin receptor type-1B (Homo sapiens) (UniProt P36896) for COc1cc2ncnc(Nc3ccc(OCc4ccccc4)cc3)c2cc1OC ? 119

Can you look up residual activity on Activin receptor type-1B (Homo sapiens) (UniProt P36896) for O=C1Nc2ccc3ncsc3c2/C1=C/c1c[nH]cn1 ? 13

Can you look up residual activity on Activin receptor type-1B (Homo sapiens) (UniProt P36896) for COc1ccc2c(c[n+](C)c3c4cc5c(cc4ccc23)OCO5)c1OC ? 94

Can you look up residual activity on Activin receptor type-1B (Homo sapiens) (UniProt P36896) for O=C1NC(=O)c2c1c1c3ccccc3n3c1c1c2c2ccccc2n1C1CCC3O1 ? 93

====

- system-name: Myosin light chain kinase, smooth muscle (Homo sapiens) (UniProt Q15746)
- Sequence (Q15746 whole entry): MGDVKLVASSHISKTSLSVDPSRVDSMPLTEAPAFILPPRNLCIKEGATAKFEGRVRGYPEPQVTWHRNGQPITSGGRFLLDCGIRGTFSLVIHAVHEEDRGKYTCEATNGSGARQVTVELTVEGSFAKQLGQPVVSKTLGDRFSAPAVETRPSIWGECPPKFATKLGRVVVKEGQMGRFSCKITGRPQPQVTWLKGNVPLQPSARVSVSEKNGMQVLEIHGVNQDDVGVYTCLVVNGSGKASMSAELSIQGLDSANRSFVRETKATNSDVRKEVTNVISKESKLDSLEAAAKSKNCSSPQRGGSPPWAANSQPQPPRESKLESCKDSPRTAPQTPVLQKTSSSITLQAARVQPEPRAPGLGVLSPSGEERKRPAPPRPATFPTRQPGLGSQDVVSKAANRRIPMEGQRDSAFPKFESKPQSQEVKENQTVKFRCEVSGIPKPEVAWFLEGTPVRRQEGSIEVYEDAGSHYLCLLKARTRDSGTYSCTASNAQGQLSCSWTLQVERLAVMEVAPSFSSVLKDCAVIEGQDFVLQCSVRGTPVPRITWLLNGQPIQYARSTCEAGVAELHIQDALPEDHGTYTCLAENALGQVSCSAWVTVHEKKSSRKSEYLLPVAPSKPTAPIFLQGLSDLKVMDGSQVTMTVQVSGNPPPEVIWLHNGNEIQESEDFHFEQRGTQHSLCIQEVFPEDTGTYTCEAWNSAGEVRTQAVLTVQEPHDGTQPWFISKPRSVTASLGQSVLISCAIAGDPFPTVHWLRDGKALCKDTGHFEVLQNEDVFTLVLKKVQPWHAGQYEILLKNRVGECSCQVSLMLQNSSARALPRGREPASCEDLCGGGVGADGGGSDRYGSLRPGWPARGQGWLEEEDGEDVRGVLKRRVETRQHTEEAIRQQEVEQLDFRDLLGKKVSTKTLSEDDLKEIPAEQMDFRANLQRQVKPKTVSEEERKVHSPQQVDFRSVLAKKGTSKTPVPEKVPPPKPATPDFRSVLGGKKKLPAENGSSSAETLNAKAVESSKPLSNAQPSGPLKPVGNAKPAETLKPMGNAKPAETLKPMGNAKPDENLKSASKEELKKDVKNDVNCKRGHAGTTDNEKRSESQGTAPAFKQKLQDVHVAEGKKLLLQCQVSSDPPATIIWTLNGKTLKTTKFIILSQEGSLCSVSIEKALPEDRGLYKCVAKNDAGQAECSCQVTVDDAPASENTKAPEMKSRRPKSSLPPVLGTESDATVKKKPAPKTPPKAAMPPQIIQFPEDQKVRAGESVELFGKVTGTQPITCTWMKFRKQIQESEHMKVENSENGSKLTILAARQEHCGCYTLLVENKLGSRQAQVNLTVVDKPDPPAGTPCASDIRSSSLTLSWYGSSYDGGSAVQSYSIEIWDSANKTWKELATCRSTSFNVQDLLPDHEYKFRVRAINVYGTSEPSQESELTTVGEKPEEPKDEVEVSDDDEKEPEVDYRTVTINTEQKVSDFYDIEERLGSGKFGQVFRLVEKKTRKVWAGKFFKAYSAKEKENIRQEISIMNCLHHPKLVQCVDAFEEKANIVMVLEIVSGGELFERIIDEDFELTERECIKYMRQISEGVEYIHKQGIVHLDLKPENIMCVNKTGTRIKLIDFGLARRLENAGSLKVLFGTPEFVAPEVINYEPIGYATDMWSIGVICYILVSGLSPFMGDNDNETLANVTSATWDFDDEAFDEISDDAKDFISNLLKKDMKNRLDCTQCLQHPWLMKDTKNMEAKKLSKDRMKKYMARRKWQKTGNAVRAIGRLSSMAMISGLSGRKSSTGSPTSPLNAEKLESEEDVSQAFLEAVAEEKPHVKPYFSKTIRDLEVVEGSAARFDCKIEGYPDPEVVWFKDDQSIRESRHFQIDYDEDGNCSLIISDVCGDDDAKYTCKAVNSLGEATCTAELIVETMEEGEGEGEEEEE
- experimental-context: at 10 µM
Give measured residual activity for each item. Keep answers brief.
Please state the value followed by its unit.

Can you look up residual activity on Myosin light chain kinase, smooth muscle (Homo sapiens) (UniProt Q15746) for COc1cc2ncnc(Nc3ccc(OCc4ccccc4)cc3)c2cc1OC ? 90%

Can you look up residual activity on Myosin light chain kinase, smooth muscle (Homo sapiens) (UniProt Q15746) for C[S+]([O-])c1ccc(-c2nc(-c3ccc(F)cc3)c(-c3ccncc3)[nH]2)cc1 (configuration not stated) ? 89%

Can you look up residual activity on Myosin light chain kinase, smooth muscle (Homo sapiens) (UniProt Q15746) for O=C1c2ccccc2-c2nc3nnnn3nc21 ? 104%

Can you look up residual activity on Myosin light chain kinase, smooth muscle (Homo sapiens) (UniProt Q15746) for c1cc(-c2cnn3cc(-c4ccc(OCCN5CCCCC5)cc4)cnc23)ccn1 ? 71%

Can you look up residual activity on Myosin light chain kinase, smooth muscle (Homo sapiens) (UniProt Q15746) for O=[N+]([O-])/C=C/c1ccc2c(c1)OCO2 ? 82%

Can you look up residual activity on Myosin light chain kinase, smooth muscle (Homo sapiens) (UniProt Q15746) for COC(=O)[C@@]1(O)C[C@H]2O[C@]1(C)n1c3ccccc3c3c4c(c5c6ccccc6n2c5c31)C(=O)NC4 ? 2%

Can you look up residual activity on Myosin light chain kinase, smooth muscle (Homo sapiens) (UniProt Q15746) for CCn1cnc2c(Nc3cccc(Cl)c3)nc(N[C@@H]3CCCC[C@@H]3N)nc21 ? 46%

====

Give measured residual activity for each item. Keep answers brief.
- system-name: Cyclin-dependent kinase 1/cyclin B1 (Homo sapiens) (UniProt P06493+P14635)
- Sequence (P06493 whole entry, looked up): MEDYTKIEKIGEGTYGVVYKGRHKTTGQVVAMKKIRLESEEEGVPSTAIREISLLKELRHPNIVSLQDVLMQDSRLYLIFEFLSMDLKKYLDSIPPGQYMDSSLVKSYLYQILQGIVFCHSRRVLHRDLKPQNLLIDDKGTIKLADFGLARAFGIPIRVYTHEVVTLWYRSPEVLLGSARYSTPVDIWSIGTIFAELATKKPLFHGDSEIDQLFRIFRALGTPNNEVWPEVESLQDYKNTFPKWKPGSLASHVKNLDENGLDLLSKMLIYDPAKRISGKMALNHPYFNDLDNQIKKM
- Sequence (P14635 whole entry, looked up): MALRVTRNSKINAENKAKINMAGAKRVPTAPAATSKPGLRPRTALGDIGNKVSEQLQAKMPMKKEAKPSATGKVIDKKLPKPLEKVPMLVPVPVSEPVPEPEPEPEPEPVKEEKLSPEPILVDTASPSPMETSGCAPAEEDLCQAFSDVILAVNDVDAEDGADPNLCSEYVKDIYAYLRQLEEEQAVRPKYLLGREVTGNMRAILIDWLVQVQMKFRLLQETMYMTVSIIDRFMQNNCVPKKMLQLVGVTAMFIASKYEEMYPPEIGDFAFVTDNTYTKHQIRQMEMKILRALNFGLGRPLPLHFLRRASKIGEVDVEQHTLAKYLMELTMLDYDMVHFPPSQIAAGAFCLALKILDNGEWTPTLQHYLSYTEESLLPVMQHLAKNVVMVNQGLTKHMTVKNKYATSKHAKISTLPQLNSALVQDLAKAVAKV
- experimental-context: at 10 µM
Form entry: value (%) — number only.

Can you look up residual activity on Cyclin-dependent kinase 1/cyclin B1 (Homo sapiens) (UniProt P06493+P14635) for COc1cc2ncnc(Nc3ccc(OCc4ccccc4)cc3)c2cc1OC ? 102

Can you look up residual activity on Cyclin-dependent kinase 1/cyclin B1 (Homo sapiens) (UniProt P06493+P14635) for c1cc(-c2cnn3cc(-c4ccc(OCCN5CCCCC5)cc4)cnc23)ccn1 ? 39

Can you look up residual activity on Cyclin-dependent kinase 1/cyclin B1 (Homo sapiens) (UniProt P06493+P14635) for CC(C)[C@H](CO)Nc1nc(Nc2cccc(Cl)c2)c2ncn(C(C)C)c2n1 ? 1

Can you look up residual activity on Cyclin-dependent kinase 1/cyclin B1 (Homo sapiens) (UniProt P06493+P14635) for O=C1Nc2ccc3ncsc3c2/C1=C/c1c[nH]cn1 ? -1

Can you look up residual activity on Cyclin-dependent kinase 1/cyclin B1 (Homo sapiens) (UniProt P06493+P14635) for O=C1NC(=O)c2c1c1c3ccccc3n3c1c1c2c2ccccc2n1C1CCC3O1 ? 48

Can you look up residual activity on Cyclin-dependent kinase 1/cyclin B1 (Homo sapiens) (UniProt P06493+P14635) for O=[N+]([O-])/C=C/c1ccc2c(c1)OCO2 ? 113

Can you look up residual activity on Cyclin-dependent kinase 1/cyclin B1 (Homo sapiens) (UniProt P06493+P14635) for O=c1[nH]c2ccccc2n1C1CCN(Cc2ccc(-c3nc4cc5[nH]cnc5cc4nc3-c3ccccc3)cc2)CC1 ? 96

Can you look up residual activity on Cyclin-dependent kinase 1/cyclin B1 (Homo sapiens) (UniProt P06493+P14635) for CCn1cnc2c(Nc3cccc(Cl)c3)nc(N[C@@H]3CCCC[C@@H]3N)nc21 ? 4

====

- system-name: Ribosomal protein S6 kinase alpha-2 (Homo sapiens) (UniProt Q15349)
- Sequence (Q15349 whole entry): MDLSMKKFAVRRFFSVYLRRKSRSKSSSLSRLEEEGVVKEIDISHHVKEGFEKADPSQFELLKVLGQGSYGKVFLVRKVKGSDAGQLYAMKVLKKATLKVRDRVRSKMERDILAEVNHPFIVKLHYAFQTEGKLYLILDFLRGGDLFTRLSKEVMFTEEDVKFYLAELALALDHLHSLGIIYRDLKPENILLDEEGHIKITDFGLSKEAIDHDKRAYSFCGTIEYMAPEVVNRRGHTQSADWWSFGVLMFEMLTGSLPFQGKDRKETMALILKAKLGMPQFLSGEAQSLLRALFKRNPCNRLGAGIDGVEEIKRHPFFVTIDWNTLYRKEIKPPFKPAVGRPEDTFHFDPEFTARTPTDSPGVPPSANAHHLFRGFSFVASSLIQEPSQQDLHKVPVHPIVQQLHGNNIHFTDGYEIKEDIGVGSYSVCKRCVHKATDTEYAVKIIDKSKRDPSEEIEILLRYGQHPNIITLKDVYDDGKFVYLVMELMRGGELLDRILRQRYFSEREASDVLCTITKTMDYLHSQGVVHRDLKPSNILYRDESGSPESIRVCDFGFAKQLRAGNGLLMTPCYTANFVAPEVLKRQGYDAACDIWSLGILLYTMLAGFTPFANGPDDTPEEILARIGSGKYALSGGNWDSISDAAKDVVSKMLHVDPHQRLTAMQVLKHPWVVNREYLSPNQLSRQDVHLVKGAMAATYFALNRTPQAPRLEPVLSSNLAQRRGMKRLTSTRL
- experimental-context: at 1 µM
value-kind: residual activity (%)
Form entry: value (%) — number only.

residual activity lookup needed for CC(C)(C)c1cc(C=C(C#N)C#N)cc(Br)c1O , thanks. 106

residual activity lookup needed for O=C1NC(=O)c2c1c1c3ccccc3n3c1c1c2c2ccccc2n1C1CCC3O1 , thanks. 8

residual activity lookup needed for COC(=O)[C@@]1(O)C[C@H]2O[C@]1(C)n1c3ccccc3c3c4c(c5c6ccccc6n2c5c31)C(=O)NC4 , thanks. 0

residual activity lookup needed for O=[N+]([O-])/C=C/c1ccc2c(c1)OCO2 , thanks. 105

residual activity lookup needed for CC(C)[C@H](CO)Nc1nc(Nc2cccc(Cl)c2)c2ncn(C(C)C)c2n1 , thanks. 75

====

- system-name: Ribosomal protein S6 kinase alpha-3 (Homo sapiens) (UniProt P51812)
- Sequence (P51812 whole entry): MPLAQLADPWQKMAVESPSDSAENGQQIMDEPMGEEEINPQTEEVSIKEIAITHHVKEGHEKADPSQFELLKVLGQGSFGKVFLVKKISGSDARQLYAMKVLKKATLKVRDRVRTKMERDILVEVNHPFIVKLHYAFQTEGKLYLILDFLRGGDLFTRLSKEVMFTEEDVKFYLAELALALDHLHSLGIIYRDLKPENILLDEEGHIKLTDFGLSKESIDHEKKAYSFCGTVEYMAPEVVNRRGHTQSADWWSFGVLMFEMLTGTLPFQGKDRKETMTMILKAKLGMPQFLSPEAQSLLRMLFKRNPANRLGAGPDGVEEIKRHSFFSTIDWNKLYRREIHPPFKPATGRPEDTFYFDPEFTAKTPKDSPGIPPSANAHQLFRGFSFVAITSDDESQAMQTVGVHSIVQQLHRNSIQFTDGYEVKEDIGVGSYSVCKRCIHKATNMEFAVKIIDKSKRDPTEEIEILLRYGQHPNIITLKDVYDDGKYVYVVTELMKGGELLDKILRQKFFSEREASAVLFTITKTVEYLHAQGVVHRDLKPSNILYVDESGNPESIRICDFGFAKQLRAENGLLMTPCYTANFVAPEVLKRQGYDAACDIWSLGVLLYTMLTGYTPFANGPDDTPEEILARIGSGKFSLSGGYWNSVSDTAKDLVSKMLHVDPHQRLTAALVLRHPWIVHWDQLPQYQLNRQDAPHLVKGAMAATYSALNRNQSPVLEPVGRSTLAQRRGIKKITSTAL
- experimental-context: at 1 µM
Give measured residual activity for each item. Keep answers brief.
Form entry: value (%) — number only.

residual activity lookup needed for COC(=O)[C@@]1(O)C[C@H]2O[C@]1(C)n1c3ccccc3c3c4c(c5c6ccccc6n2c5c31)C(=O)NC4 , thanks. 1

residual activity lookup needed for O=c1[nH]c2ccccc2n1C1CCN(Cc2ccc(-c3nc4cc5[nH]cnc5cc4nc3-c3ccccc3)cc2)CC1 , thanks. 68

residual activity lookup needed for O=C1NC(=O)c2c1c1c3ccccc3n3c1c1c2c2ccccc2n1C1CCC3O1 , thanks. 11

residual activity lookup needed for COc1cc2ncnc(Nc3ccc(OCc4ccccc4)cc3)c2cc1OC , thanks. 52

residual activity lookup needed for N/C(=N\[N+](=O)[O-])N/N=C\c1ccc(-c2cccc([N+](=O)[O-])c2)o1 , thanks. 43

residual activity lookup needed for CCn1cnc2c(Nc3cccc(Cl)c3)nc(N[C@@H]3CCCC[C@@H]3N)nc21 , thanks. 28

residual activity lookup needed for CCc1nc(-c2ccc(OC)cc2)[nH]c1-c1ccncc1 , thanks. 52

residual activity lookup needed for O=[N+]([O-])/C=C/c1ccc2c(c1)OCO2 , thanks. 118

residual activity lookup needed for c1cc(-c2cnn3cc(-c4ccc(OCCN5CCCCC5)cc4)cnc23)ccn1 , thanks. 46

residual activity lookup needed for C[S+]([O-])c1ccc(-c2nc(-c3ccc(F)cc3)c(-c3ccncc3)[nH]2)cc1 (stereo not given) , thanks. 108

====

- system-name: Serine/threonine-protein kinase Chk2 (Homo sapiens)
- experimental-context: at 1 µM
Give measured residual activity for each item. Keep answers brief.

Can you look up residual activity on Serine/threonine-protein kinase Chk2 (Homo sapiens) for COc1ccc2c(c[n+](C)c3c4cc5c(cc4ccc23)OCO5)c1OC ? 73%

Can you look up residual activity on Serine/threonine-protein kinase Chk2 (Homo sapiens) for O=C1Nc2ccc3ncsc3c2/C1=C/c1c[nH]cn1 ? 50%

Can you look up residual activity on Serine/threonine-protein kinase Chk2 (Homo sapiens) for COc1ccc2c(c1)/C(=C/c1cnc[nH]1)C(=O)N2 ? 67%

Can you look up residual activity on Serine/threonine-protein kinase Chk2 (Homo sapiens) for CC(C)(C)c1cc(C=C(C#N)C#N)cc(Br)c1O ? 96%

Can you look up residual activity on Serine/threonine-protein kinase Chk2 (Homo sapiens) for COc1cc(OC)c(/C=C2\C(=O)Nc3ccccc32)c(OC)c1 ? 89%

Can you look up residual activity on Serine/threonine-protein kinase Chk2 (Homo sapiens) for N/C(=N\[N+](=O)[O-])N/N=C\c1ccc(-c2cccc([N+](=O)[O-])c2)o1 ? 91%

Can you look up residual activity on Serine/threonine-protein kinase Chk2 (Homo sapiens) for O=[N+]([O-])/C=C/c1ccc2c(c1)OCO2 ? 85%

Can you look up residual activity on Serine/threonine-protein kinase Chk2 (Homo sapiens) for O=C1NC(=O)c2c1c1c3ccccc3n3c1c1c2c2ccccc2n1C1CCC3O1 ? 26%

Can you look up residual activity on Serine/threonine-protein kinase Chk2 (Homo sapiens) for COc1cc2ncnc(Nc3ccc(OCc4ccccc4)cc3)c2cc1OC ? 8%

These measurements were taken from ChEMBL document CHEMBL2218924.
